Where do the numbers come from? From PubChem BioAssay (NCI).

# System: SF-295 CNS
# METHOD_DESCRIPTION: NCI-60 one-dose screen, 48 h (100 = growth as untreated, 0 = no growth, -100 = all killed)
# TEST_CONDITIONS: 10 µM unless noted
# Procedure: Cells are grown in 96 well plates and exposed to the test compound for 48 hours. Compounds are tested at a single concentration, which is 10^-5 M for most compounds. The reported endpoint is percent growth (GI% or GIPRCNT), where numbers from 0 - 100% represent growth inhibition, and numbers from -100% - 0 represent cell death. For example, a value of 40 represents 60% growth inhibition. A value of 0 means no net growth occurred over the course of the experiment. […]
This is part of a sample that, as a whole, favours compounds with a hit. Of some 83,000 tested, about 20% had one in any assay. Calls of active or inactive are those of the source. How the source made its calls: active means growth percent below 10; inactive means the rest.
Below is a list of entries, each paired with its recorded growth value.

Consider the reported growth for these compounds:
>  <COMPOUND>
c1ccc(OCc2nnc(-c3ccc(Oc4ccccc4)cc3)o2)cc1

>  <growth>
103% (inactive)

$$$$
>  <COMPOUND>
COc1ccc(C2C(N)=NNC2c2cccc(O)c2)cc1 (stereo not drawn)

>  <growth>
92.1% (inactive)

$$$$
>  <COMPOUND>
COc1nc2ccc(C)cc2cc1-c1nc2c(cnn2-c2ccccc2)c(=O)[nH]1

>  <growth>
90.9% (inactive)

$$$$
>  <COMPOUND>
COC(=O)CCC/C=C\C[C@H]1C=CC(=O)/C1=C/C[C@@H](O)CCc1cccc(C(F)(F)F)c1

>  <growth>
-21.1% (active)

$$$$
>  <COMPOUND>
CCOC(=O)c1c2c(n(-c3ccc(C#N)cc3)c1-c1ccccc1)C=CCC2

>  <growth>
86.2% (inactive)

$$$$

Exam item: What value of growth has been reported for the following compound? COc1cc(C(=O)c2cc(C)c3[nH]c4ccc(O)cc4c3c2C)cc(OC)c1OC
Marked response: 9.6% (active)

Exam item: GET /values?readout=growth&item= Nc1nc(Cl)cc(=O)n1Cc1ccccc1
Marked response: 95.5% (inactive)

Exam item: Recorded growth for COc1nc2ccccc2cc1-c1nc2c(cnn2-c2ccccc2)c(=O)[nH]1 , please?
Marked response: 43.8% (inactive)

Exam item: Entry under review: O=C(N/N=C/c1c(Cl)cccc1Cl)c1ccc(C(F)(F)F)nc1Nc1cccc(C(F)(F)F)c1 . Reported growth?
Marked response: 13.7% (inactive)

Exam item: Field request: growth | item: CCCCCCNC(=O)Oc1ccc(/C(=C(\C)c2ccc(OC)cc2)c2ccc(OCCN3CCCCC3)cc2)cc1
Marked response: 33.3% (inactive)

Exam item: What growth value was documented for this compound, COc1ccc(/C=C/c2c(C(=O)/C=C/c3ccc(Cl)cc3)c(C)nc3ccccc23)cc1 ?
Marked response: 42.2% (inactive)

Exam item: Value lookup for growth; key = C[C@]12CC[C@@H]3c4cc(OC(F)F)c(OS(N)(=O)=O)cc4CC[C@H]3[C@@H]1CC[C@@H]2OS(N)(=O)=O
Marked response: 27.3% (inactive)

Exam item: Name the recorded growth for COc1ccc(C(=O)/C=C/c2sc(Cl)nc2Cl)cc1 .
Marked response: 52.3% (inactive)
